tested on: maize line C28 callus; assay: Four week callus growth inhibition study, resistant line C28; format: cell-based; conditions: Zea mays, 672 h; C28 line, four week growth inhibition; read-out: Level of 5MT giving 50% growth inhibition
pIC50: −log10 of the molar value.
Recorded endpoint: pIC50

Which pIC50 is listed for `Cc1ccc2[nH]cc(C[C@H](N)C(=O)O)c2c1` ?
3.40 to 3.52

====

tested on: maize callus tissue (unselected parent, A188 x B73); test: Callus culture growth inhibition by 5MT, unselected parent tissue; format: cell-based; settings: Zea mays, 672 h; unselected parent tissue, four week growth inhibition; read-out: Level of 5MT giving 50% growth inhibition
Recorded endpoint: IC50

Find the recorded IC50 belonging to `Cc1ccc2[nH]cc(C[C@H](N)C(=O)O)c2c1` and report it.
3 to 10 µM
